From: patent US20200207857A1

Give measured Kd for each item. Keep answers brief.
Target: Recombinant protein Claudin 18.2
Sequence (chain, as listed by the source limits assumed, form in doubt): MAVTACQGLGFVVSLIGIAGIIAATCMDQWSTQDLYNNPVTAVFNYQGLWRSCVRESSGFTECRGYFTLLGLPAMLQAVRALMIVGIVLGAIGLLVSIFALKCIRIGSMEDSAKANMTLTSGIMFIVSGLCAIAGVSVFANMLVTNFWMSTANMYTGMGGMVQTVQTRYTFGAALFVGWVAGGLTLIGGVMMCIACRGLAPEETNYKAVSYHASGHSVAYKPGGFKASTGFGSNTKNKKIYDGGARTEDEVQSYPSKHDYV
Assay: ELISA-based assay on Claudin 18.2, y axis RLU; Kd table under the graph, no unit in the table, unit from the x axis log[antibody] nM
Answers are plain numbers, in nM.

Some entries whose results are on file:
h5C9oh (antibody, V domains shown) VH: EVQLVESGGGLVQPGGSLRLSCAVSGYTFSMNWVRQAPGKGLEWVAWINMYTGEPTYADDFKGRFTISRDDSKNTLYLQMNSLRAEDTAVYYCARLYRGNSLDYWGQGTLVTVSS VL: DIQMTQSPSSLSASVGDRVTITCKSSQSLLNSGNQKSYLTWYQQKPGKAPKLLIYWASTLESGVPSRFSGSGSGTDYTLTISSLQPEDFATYYCQNAYEFPFTFGQGTKVEIK: 0.201
Anti-CLDN 18.2-5C9oai (humanized antibody h5C9oai) (antibody, human IgG1, V domains shown) VH: EVQLVESGGGLVQPGGSLRLSCAVSGYTFSMNWVRQAPGKGLEWVAWINMYTGEPTYADDFKGRFTISRDDSKNTLYLQMNSLRAEDTAVYYCARLARGNSMDYWGQGTLVTVSS VL: DIQMTQSPSSLSASVGDRVTITCKSSQSLLNSGNQKSYLTWYQQKPGKAPKLLIYWASTLESGVPSRFSGSGSGTDYTLTISSLQPEDFATYYCQNAYSFPFTFGQGTKVEIK: 0.196

Would you kindly look at the next entry?
Record Anti-CLDN 18.2-5C9oag (humanized antibody h5C9oag) (antibody, human IgG1, V domains shown) VH: EVQLVESGGGLVQPGGSLRLSCAVSGYTFSMNWVRQAPGKGLEWVAWINMYTGEPTYADDFKGRFTISRDDSKNTLYLQMNSLRAEDTAVYYCARLARGNSIDYWGQGTLVTVSS VL: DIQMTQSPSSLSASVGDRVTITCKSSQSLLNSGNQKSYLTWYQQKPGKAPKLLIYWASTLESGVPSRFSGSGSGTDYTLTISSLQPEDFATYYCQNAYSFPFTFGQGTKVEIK , field Kd: 0.196
